targetSystem: Src (Homo sapiens, UniProt P12931)
Construct: purchased Invitrogen PR4336E
Sequence (P12931 whole entry): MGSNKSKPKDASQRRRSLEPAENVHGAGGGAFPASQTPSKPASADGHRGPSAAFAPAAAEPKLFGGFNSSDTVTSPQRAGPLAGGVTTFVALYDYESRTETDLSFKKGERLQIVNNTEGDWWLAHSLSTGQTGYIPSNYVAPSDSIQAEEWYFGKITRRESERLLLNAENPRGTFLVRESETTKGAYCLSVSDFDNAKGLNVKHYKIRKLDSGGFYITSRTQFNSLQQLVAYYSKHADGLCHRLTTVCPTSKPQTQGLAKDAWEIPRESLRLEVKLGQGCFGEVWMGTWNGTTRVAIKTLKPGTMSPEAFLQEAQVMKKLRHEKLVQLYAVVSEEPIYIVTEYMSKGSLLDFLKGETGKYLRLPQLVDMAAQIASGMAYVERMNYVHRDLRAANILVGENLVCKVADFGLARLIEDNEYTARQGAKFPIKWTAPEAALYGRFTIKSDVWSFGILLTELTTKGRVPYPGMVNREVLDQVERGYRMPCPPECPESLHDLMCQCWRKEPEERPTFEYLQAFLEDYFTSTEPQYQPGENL
protocolDetails: Cell-free kinase assay (Reaction Biology, ADP-Glo)
Type: biochemical
statedConditions: inhibitor 500 nM; 100 μM ATP; average of duplicate
Would you mind telling me the reported inhibition at 0.5 µM of each entry?
Numbers only, in %.

- smilesRecord: "Cc1ncc(C(=O)Nc2ccc(CN3CCN(C)CC3)c(C(F)(F)F)c2)cc1C#Cc1c(N)ncc2ccccc12"
  targetSystem: "Src (Homo sapiens, UniProt P12931)"
  valueUnits: "%"
  experimentalValue: 100

Look up inhibition at 0.5 µM for the entries below, preserving their order.
1. Cc1ccc(C(=O)Nc2ccc(CN3CCN(C)CC3)c(C(F)(F)F)c2)cc1C#Cc1cncc2ncccc12
2. Cc1ccc(C(=O)Nc2ccc(CN3CCN(C)CC3)c(C(F)(F)F)c2)cc1C#Cc1nc(Br)cnc1N
3. Cc1ccc(C(=O)Nc2ccc(CN3CCN(C)CC3)c(C(F)(F)F)c2)cc1C#Cc1ccc(N)nc1

Response:
[99, 99, 99]

Look up inhibition at 0.5 µM for the entries below, preserving their order.
1. Cc1ncc(C(=O)Nc2ccc(CN3CCN(C)CC3)c(C(F)(F)F)c2)cc1C#Cc1cncc2ncccc12
2. Cc1ncc(C(=O)Nc2ccc(CN3CCN(C)CC3)c(C(F)(F)F)c2)cc1C#Cc1cnc(N)c2ccccc12
3. COc1ccc2c(N)ncc(C#Cc3cc(C(=O)Nc4ccc(CN5CCN(C)CC5)c(C(F)(F)F)c4)cnc3C)c2c1

Response:
[98, 100, 99]

* * *

System: MOLM-14 (ITD, F691 L) cells
protocolDetails: Antiproliferative activity (CellTitre-Blue, 72 h)
Type: cell-based, human
statedConditions: 72 h incubation, triplicates; listed as 20 (HSN459); read-out: IC50 (mean ±SD, nM) MOLM-14 (ITD, F691 L)
property: IC50 (nM)
Give bare numbers, in nM.

Query: If you can, please state the reported IC50 value of Cc1ncc(C(=O)Nc2ccc(CN3CCN(C)CC3)c(C(F)(F)F)c2)cc1C#Cc1cnc(N)c2ncccc12 [Compound 20] .
Response: 0.9

* * *

targetSystem: p70S6K (Homo sapiens, UniProt P23443)
Sequence (P23443 whole entry): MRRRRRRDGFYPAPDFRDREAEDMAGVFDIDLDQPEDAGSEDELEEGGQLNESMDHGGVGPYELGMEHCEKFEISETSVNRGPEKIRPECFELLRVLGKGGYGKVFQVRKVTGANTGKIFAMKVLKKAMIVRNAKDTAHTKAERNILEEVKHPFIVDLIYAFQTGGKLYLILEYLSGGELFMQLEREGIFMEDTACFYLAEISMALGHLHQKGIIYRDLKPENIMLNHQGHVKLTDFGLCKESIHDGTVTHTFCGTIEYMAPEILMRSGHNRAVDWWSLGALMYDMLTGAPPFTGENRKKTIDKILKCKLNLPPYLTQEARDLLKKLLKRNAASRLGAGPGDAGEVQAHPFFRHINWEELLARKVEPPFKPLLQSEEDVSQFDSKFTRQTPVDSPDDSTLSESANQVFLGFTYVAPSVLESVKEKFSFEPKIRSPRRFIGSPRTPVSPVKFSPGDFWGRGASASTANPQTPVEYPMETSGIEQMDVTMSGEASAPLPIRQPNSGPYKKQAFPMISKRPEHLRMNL
property: pIC50
Answers are plain numbers, as −log10 of the molar value.

Query: If you can, please state the reported pIC50 value of Cc1ncc(C(=O)Nc2ccc(CN3CCN(C)CC3)c(C(F)(F)F)c2)cc1C#Cc1c(N)ncc2ccc(F)cc12 .
Response: 7.35

* * *

System: MOLM-14 (ITD, D835Y) cells
protocolDetails: Antiproliferative activity (CellTitre-Blue, 72 h)
Assay type: cell-based, human
statedConditions: Homo sapiens, MOLM-14, 72 h, 72 h incubation, triplicates; read-out: IC50 (mean ±SD, nM) MOLM-14 (ITD, D835Y)
Threshold 7 nM: IC50 strictly smaller gives TRUE, otherwise FALSE.

Solved entries:
- compound: "Cc1ccc2cnc(N)c(C#Cc3cc(C(=O)Nc4ccc(CN5CCN(C)CC5)c(C(F)(F)F)c4)cnc3C)c2c1"
  targetSystem: "MOLM-14 (ITD, D835Y) cells"
  category: "TRUE"
- compound: "Cc1ncc(C(=O)Nc2ccc(CN3CCN(C)CC3)c(C(F)(F)F)c2)cc1C#Cc1c(N)ncc2ccccc12"
  targetSystem: "MOLM-14 (ITD, D835Y) cells"
  category: "FALSE"
- compound: "Cc1ncc(C(=O)Nc2ccc(CN3CCN(C)CC3)c(C(F)(F)F)c2)cc1C#Cc1cncc2ncccc12"
  targetSystem: "MOLM-14 (ITD, D835Y) cells"
  category: "TRUE"
- compound: "CC1(COc2ccc3c(c2)ncn3-c2ccc3cccc(N4CCC(N)CC4)c3n2)COC1 [Crenolanib, reference compound]"
  targetSystem: "MOLM-14 (ITD, D835Y) cells"
  category: "TRUE"
- compound: "CC(C)(C)c1cc(NC(=O)Nc2ccc(-c3cn4c(n3)sc3cc(OCCN5CCOCC5)ccc34)cc2)no1 [Quizartinib, reference compound]"
  targetSystem: "MOLM-14 (ITD, D835Y) cells"
  category: "FALSE"

Okay, now this compound:
Query: Does the reported IC50 of Cc1ncc(C(=O)Nc2ccc(CN3CCN(C)CC3)c(C(F)(F)F)c2)cc1C#Cc1c(N)ncc2ccc(Cl)cc12 stay below 7 nM?
Response: FALSE

* * *

Test system: MOLM-14 cells
protocolDetails: Antiproliferative activity (CellTitre-Blue, 72 h)
Format: cell-based, human
statedConditions: Homo sapiens, MOLM-14; 72 h incubation, triplicates; read-out: IC50 (mean ±SD, nM) MOLM-14
property: IC50 (nM)
Numbers only, in nM.

Known results for molecules:
- molecule: "Cc1ccc2cnc(N)c(C#Cc3cc(C(=O)Nc4ccc(CN5CCN(C)CC5)c(C(F)(F)F)c4)cnc3C)c2c1"
  property: "IC50"
  experimentalValue: 1.4
- molecule: "Cc1ncc(C(=O)Nc2ccc(CN3CCN(C)CC3)c(C(F)(F)F)c2)cc1C#Cc1c(N)ncc2ccccc12"
  property: "IC50"
  experimentalValue: 2.8

Query: If you can, please state the reported IC50 value of Cc1ccc(C(=O)Nc2ccc(CN3CCN(C)CC3)c(C(F)(F)F)c2)cc1C#Cc1cnc2cccnn12 [Ponatinib, reference compound] .
Response: 0.5

* * *

targetSystem: Src (Homo sapiens, UniProt P12931)
Construct: purchased Invitrogen PR4336E
protocolDetails: Cell-free kinase assay (Reaction Biology, ADP-Glo)
Assay type: biochemical
statedConditions: inhibitor 500 nM; 100 μM ATP; average of duplicate
Would you mind telling me the reported inhibition at 0.5 µM of each entry?
One number for each entry, in %.

Look up inhibition at 0.5 µM for the entries below, preserving their order.
1. Cc1ncc(C(=O)Nc2ccc(CN3CCN(C)CC3)c(C(F)(F)F)c2)cc1C#Cc1cnc(N)c2ncccc12 [Compound 20]
2. Cc1ccc(C(=O)Nc2ccc(CN3CCN(C)CC3)c(C(F)(F)F)c2)cc1C#Cc1cccnc1N [Compound 1]

Response:
1: 100; 2: 99

Look up inhibition at 0.5 µM for the entries below, preserving their order.
1. Cc1ccc(C(=O)Nc2ccc(CN3CCN(C)CC3)c(C(F)(F)F)c2)cc1C#Cc1cnc(N)c2ncccc12 [Compound 19]
2. Cc1ccc2cnc(N)c(C#Cc3cc(C(=O)Nc4ccc(CN5CCN(C)CC5)c(C(F)(F)F)c4)cnc3C)c2c1 [Compound 13]
3. Cc1ncc(C(=O)Nc2ccc(CN3CCN(C)CC3)c(C(F)(F)F)c2)cc1C#Cc1cnc(NC2CC2)c2ncccc12 [Compound 21]
4. Cc1ncc(C(=O)Nc2ccc(CN3CCN(C)CC3)c(C(F)(F)F)c2)cc1C#Cc1c(N)ncc2ccc(Cl)cc12 [Compound 9]
5. Cc1ccc(C(=O)Nc2ccc(CN3CCN(C)CC3)c(C(F)(F)F)c2)cc1C#Cc1cnc(N)c2ccccc12 [Compound 15]

Response:
1. 98
2. 98
3. 20
4. 98
5. 97

Query: Given the entry Cc1cnc(C(=O)Nc2ccc(CN3CCN(C)CC3)c(C(F)(F)F)c2)cc1C#Cc1c(N)ncc2ccc(Cl)cc12 [Compound 10] , what inhibition at 0.5 µM was observed with Src (Homo sapiens, UniProt P12931)?
Response: 93

* * *

Sequence of the target: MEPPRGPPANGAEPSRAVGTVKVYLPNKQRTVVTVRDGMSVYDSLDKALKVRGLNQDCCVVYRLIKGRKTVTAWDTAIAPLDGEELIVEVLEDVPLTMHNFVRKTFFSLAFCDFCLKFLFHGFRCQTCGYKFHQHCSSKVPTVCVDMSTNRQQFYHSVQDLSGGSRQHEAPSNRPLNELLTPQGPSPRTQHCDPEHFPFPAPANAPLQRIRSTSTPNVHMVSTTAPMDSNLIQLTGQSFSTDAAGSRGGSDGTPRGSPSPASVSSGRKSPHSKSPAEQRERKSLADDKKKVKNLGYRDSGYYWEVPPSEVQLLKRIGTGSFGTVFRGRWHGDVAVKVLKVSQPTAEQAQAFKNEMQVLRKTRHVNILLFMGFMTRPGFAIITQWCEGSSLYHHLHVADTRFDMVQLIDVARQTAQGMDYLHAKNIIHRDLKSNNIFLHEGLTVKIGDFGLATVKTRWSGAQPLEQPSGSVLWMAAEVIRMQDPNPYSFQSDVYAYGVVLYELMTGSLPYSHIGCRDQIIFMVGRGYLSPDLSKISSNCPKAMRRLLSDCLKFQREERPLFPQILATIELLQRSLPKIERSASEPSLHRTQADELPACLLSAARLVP
property: IC50 (nM)
Numbers only, in nM.

Query: If you can, please state the reported IC50 value of Cc1ncc(C(=O)Nc2ccc(CN3CCN(C)CC3)c(C(F)(F)F)c2)cc1C#Cc1c(N)ncc2ccc(F)cc12 [Compound 7] .
Response: 27.6

* * *

Test system: MOLM-14 (ITD, F691 L) cells
protocolDetails: Antiproliferative activity (CellTitre-Blue, 72 h)
Format: cell-based, human
statedConditions: 72 h incubation, triplicates; listed as 7 (HSN431); read-out: IC50 (mean ±SD, nM) MOLM-14 (ITD, F691 L)
property: IC50 (nM)
Numbers only, in nM.

Query: If you can, please state the reported IC50 value of Cc1ncc(C(=O)Nc2ccc(CN3CCN(C)CC3)c(C(F)(F)F)c2)cc1C#Cc1c(N)ncc2ccc(F)cc12 [Compound 7] .
Response: 3.3
